- systemName: human chorionic gonadotropin (hCG) heterodimer (Homo sapiens, UniProt P01215;P0DN86 P01215:25-116,P0DN86:21-165)
- Sequence (P01215 25-116, chain 1 of 2, other chains not shown): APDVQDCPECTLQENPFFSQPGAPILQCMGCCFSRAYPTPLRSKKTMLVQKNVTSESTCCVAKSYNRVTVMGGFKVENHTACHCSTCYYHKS
- experimentalProtocol: filter
- assayContext: tags: Calbiochem or Vitro Diagnostics (14,000 IU/mg); chain copies: alpha/beta heterodimer (stated); label: 32P
Answer -1 if binding signal is under 10 % bound at 100 nM, and 1 if it is 10 % bound at 100 nM or more.

Field: example entries. Status: answers known.
(Q) Check if binding signal >= 10 % bound at 100 nM (inclusive). Item: 2nd generation ligand 74 (ssRNA, 2'-F all pyrimidines) RNA: GGGAGGACGAUGCGGUAAGUUCUAACUUUUGAACGAUCCUUGGCACCCUGACUACAGACGACUCGCCCGA
(A) 1

(Q) Check if binding signal >= 10 % bound at 100 nM (inclusive). Item: 2nd generation ligand 5 (ssRNA, 2'-F all pyrimidines) RNA: GGGAGGACGAUGCGGGUUUAAUCUCGGAUUGAACGAUCCUUUCUGUAAUUAGUCCAGACGACUCGCCCGA
(A) -1

(Q) Check if binding signal >= 10 % bound at 100 nM (inclusive). Item: 2nd generation ligand 23 (ssRNA, 2'-F all pyrimidines) RNA: GGGAGGACGAUGCGGGUUUAAUACAAAGUUGAACGAUCCUUCUUUGCAUUGGACCAGACGACUCGCCCGA
(A) 1

Further cases:
(Q) Check if binding signal >= 10 % bound at 100 nM (inclusive). Item: 2nd generation ligand 86 (ssRNA, 2'-F all pyrimidines) RNA: GGGAGGACGAUGCGGUUCAACAACGUACUUGAACGAUCCUUGUGCUCGUUGAUCCAGACGACUCGCCCGA
(A) -1
